B1: Lysine-specific demethylase 5C, residues 319 to 373; numbered along this chain, P41229 (parent)
chain: AQFIESYVCRMCSRGDEDDKLLLCDGCDDNYHIFCLLPPLPEIPKGVWRCPKCVM

# Variants of: B1
# test summary: abundance fitness (aPCA) (normalised: wild type 0, dead -1); higher = more abundant; growth selection in yeast, the domain comes from the species named
# particulars: Homo sapiens
// reported abundance fitness per item
Give the figure by itself; no unit, no explanation.

A selection of reference data follows.
Qu. Return abundance fitness for the following variant: `L23A`
Ans. 0.044

Qu. Return abundance fitness for the following variant: `C35H`
Ans. -0.235

Qu. Return abundance fitness for the following variant: `C27Q`
Ans. -0.522

Continuing:
Qu. Return abundance fitness for the following variant: `E5H`
Ans. -0.263

Qu. Return abundance fitness for the following variant: `E17I`
Ans. -0.052

Qu. Return abundance fitness for the following variant: `H32T`
Ans. -0.898

Qu. Return abundance fitness for the following variant: `C35R`
Ans. -0.41

Qu. Return abundance fitness for the following variant: `C9W`
Ans. -0.937

Qu. Return abundance fitness for the following variant: `L22E`
Ans. -0.523

Qu. Return abundance fitness for the following variant: `E17K`
Ans. -0.122

Qu. Return abundance fitness for the following variant: `M11G`
Ans. -0.072
